# Organism: Rattus norvegicus
# assay.comment: Open TG-GATES - Regimen: Single
# Type: toxicity, organism-based, Sprague-Dawley
# Set-up: regimen Single, gender Male, age 6 weeks
# setup.conditions: in vivo, po, 0 mg/kg, 24 h, tissue Blood, route gavage, dose level Control
In this section, each of the compounds is paired with its reported WBC.

[
  {
    "compound": "C[C@](N)(Cc1ccc(O)c(O)c1)C(=O)O",
    "WBC [x10_2/uL]": 77.2
  },
  {
    "compound": "CC(=N)S [THIOACETAMIDE]",
    "WBC [x10_2/uL]": 135
  },
  {
    "compound": "CC(C)(S)[C@@H](N)C(=O)O",
    "WBC [x10_2/uL]": 92.6
  },
  {
    "compound": "CN1C(=O)OC(C)(C)C1=O",
    "WBC [x10_2/uL]": 99.1
  },
  {
    "compound": "C#C[C@]1(O)CC[C@H]2[C@@H]3CCc4cc(O)ccc4[C@H]3CC[C@@]21C",
    "WBC [x10_2/uL]": 103.2
  },
  {
    "compound": "CCN1CCCC1CNC(=O)c1cc(S(N)(=O)=O)ccc1OC (stereo not given) [SULPIRIDE]",
    "WBC [x10_2/uL]": 96.8
  },
  {
    "compound": "CC(C)C(=O)Nc1ccc([N+](=O)[O-])c(C(F)(F)F)c1 [FLUTAMIDE]",
    "WBC [x10_2/uL]": 97.9
  },
  {
    "compound": "CC(=O)Oc1cc(C(C)C)c(OCCN(C)C)cc1C",
    "WBC [x10_2/uL]": 102.9
  },
  {
    "compound": "CCc1oc2ccccc2c1C(=O)c1cc(I)c(O)c(I)c1",
    "WBC [x10_2/uL]": 109.7
  },
  {
    "compound": "Oc1ncnc2[nH]ncc12",
    "WBC [x10_2/uL]": 97
  }
]

====

# Species: Rattus norvegicus
# assay.comment: Open TG-GATES - Regimen: Single
# Type: toxicity, organism-based, Sprague-Dawley
# Set-up: regimen Single, gender Male, age 6 weeks
# setup.conditions: in vivo, po, 0 mg/kg, 9 h, tissue Plasma, route gavage, dose level Control

[
  {
    "compound": "CCc1oc2ccccc2c1C(=O)c1cc(I)c(O)c(I)c1",
    "Ca / mg/dL": 10.3
  },
  {
    "compound": "CC(=O)Oc1cc(C(C)C)c(OCCN(C)C)cc1C",
    "Ca / mg/dL": 10.5
  },
  {
    "compound": "CCSCC[C@H](N)C(=O)O",
    "Ca / mg/dL": 10.4
  },
  {
    "compound": "O=C(N[C@H](CO)[C@H](O)c1ccc([N+](=O)[O-])cc1)C(Cl)Cl",
    "Ca / mg/dL": 11.2
  },
  {
    "compound": "CC(=N)S [THIOACETAMIDE]",
    "Ca / mg/dL": 10.3
  },
  {
    "compound": "Nc1nc(N)c2nc(-c3ccccc3)c(N)nc2n1",
    "Ca / mg/dL": 10.6
  },
  {
    "compound": "C#C[C@]1(O)CC[C@H]2[C@@H]3CCc4cc(O)ccc4[C@H]3CC[C@@]21C",
    "Ca / mg/dL": 10.5
  },
  {
    "compound": "CC(C)C(=O)Nc1ccc([N+](=O)[O-])c(C(F)(F)F)c1 [FLUTAMIDE]",
    "Ca / mg/dL": 10.1
  },
  {
    "compound": "C[C@](N)(Cc1ccc(O)c(O)c1)C(=O)O",
    "Ca / mg/dL": 10.9
  },
  {
    "compound": "CC(C)(S)[C@@H](N)C(=O)O",
    "Ca / mg/dL": 10.7
  },
  {
    "compound": "C[C@]12CCC(=O)C=C1CC[C@@H]1[C@@H]2CC[C@@]2(C)[C@H]1CC[C@]2(C)O",
    "Ca / mg/dL": 10.4
  },
  {
    "compound": "CCC(C)(C)C(=O)O[C@H]1C[C@@H](C)C=C2C=C[C@H](C)[C@H](CC[C@@H]3C[C@@H](O)CC(=O)O3)[C@H]21",
    "Ca / mg/dL": 10.9
  },
  {
    "compound": "CN1C(=O)OC(C)(C)C1=O",
    "Ca / mg/dL": 10.5
  },
  {
    "compound": "O=C(O)c1cccnc1",
    "Ca / mg/dL": 10.7
  },
  {
    "compound": "CCN1CCCC1CNC(=O)c1cc(S(N)(=O)=O)ccc1OC (stereo not given) [SULPIRIDE]",
    "Ca / mg/dL": 10.7
  }
]

====

# Species on record: Rattus norvegicus
# assay.comment: Open TG-GATES - Regimen: Daily Repeat
# Format: toxicity, organism-based, Sprague-Dawley
# Set-up: regimen Daily Repeat, gender Male, age 6 weeks
# setup.conditions: in vivo, po, 300 mg/kg, […], tissue Plasma, route gavage, dose level Middle, time 14 day
readout.name: Na (meq/L)

[
  {
    "compound": "CCN1CCCC1CNC(=O)c1cc(S(N)(=O)=O)ccc1OC (centres undefined) [SULPIRIDE]",
    "readout.name": "Na",
    "test.result": 140.6
  },
  {
    "compound": "CC(C)(S)[C@@H](N)C(=O)O",
    "readout.name": "Na",
    "test.result": 142.8
  },
  {
    "compound": "O=C(N[C@H](CO)[C@H](O)c1ccc([N+](=O)[O-])cc1)C(Cl)Cl",
    "readout.name": "Na",
    "test.result": 144
  },
  {
    "compound": "O=C(O)c1cccnc1",
    "readout.name": "Na",
    "test.result": 137.6
  }
]

====

# Organism: Rattus norvegicus
# assay.comment: Open TG-GATES - Regimen: Single
# Format: toxicity, organism-based, Sprague-Dawley
# Set-up: regimen Single, gender Male, age 6 weeks
# setup.conditions: in vivo, po, 0 mg/kg, 24 h, tissue Blood, route gavage, dose level Control
readout.name: Neu (%)

[
  {
    "compound": "CC(=O)Oc1cc(C(C)C)c(OCCN(C)C)cc1C",
    "reading.unit": "%",
    "test.result": 17.4
  },
  {
    "compound": "Oc1ncnc2[nH]ncc12",
    "reading.unit": "%",
    "test.result": 14.8
  },
  {
    "compound": "Nc1nc(N)c2nc(-c3ccccc3)c(N)nc2n1",
    "reading.unit": "%",
    "test.result": 19.8
  },
  {
    "compound": "CC(C)C(=O)Nc1ccc([N+](=O)[O-])c(C(F)(F)F)c1 [FLUTAMIDE]",
    "reading.unit": "%",
    "test.result": 13.4
  },
  {
    "compound": "CC(=N)S [THIOACETAMIDE]",
    "reading.unit": "%",
    "test.result": 12.5
  },
  {
    "compound": "CCN1CCCC1CNC(=O)c1cc(S(N)(=O)=O)ccc1OC (stereo not given) [SULPIRIDE]",
    "reading.unit": "%",
    "test.result": 18.4
  },
  {
    "compound": "C[C@](N)(Cc1ccc(O)c(O)c1)C(=O)O",
    "reading.unit": "%",
    "test.result": 19.4
  },
  {
    "compound": "CN1C(=O)OC(C)(C)C1=O",
    "reading.unit": "%",
    "test.result": 18.2
  },
  {
    "compound": "O=C(O)c1cccnc1",
    "reading.unit": "%",
    "test.result": 14
  },
  {
    "compound": "CC(C)(S)[C@@H](N)C(=O)O",
    "reading.unit": "%",
    "test.result": 17.6
  },
  {
    "compound": "CCSCC[C@H](N)C(=O)O",
    "reading.unit": "%",
    "test.result": 14.8
  },
  {
    "compound": "CCc1oc2ccccc2c1C(=O)c1cc(I)c(O)c(I)c1",
    "reading.unit": "%",
    "test.result": 16.2
  },
  {
    "compound": "O=C(N[C@H](CO)[C@H](O)c1ccc([N+](=O)[O-])cc1)C(Cl)Cl",
    "reading.unit": "%",
    "test.result": 15.2
  },
  {
    "compound": "CCC(C)(C)C(=O)O[C@H]1C[C@@H](C)C=C2C=C[C@H](C)[C@H](CC[C@@H]3C[C@@H](O)CC(=O)O3)[C@H]21",
    "reading.unit": "%",
    "test.result": 8.4
  },
  {
    "compound": "C[C@]12CCC(=O)C=C1CC[C@@H]1[C@@H]2CC[C@@]2(C)[C@H]1CC[C@]2(C)O",
    "reading.unit": "%",
    "test.result": 19.6
  }
]
